Provenance of the data: patent US10544143B2

- measurement-target: human TLR8 (Homo sapiens (Human))
- Sequence (Q9NR97 27-1041): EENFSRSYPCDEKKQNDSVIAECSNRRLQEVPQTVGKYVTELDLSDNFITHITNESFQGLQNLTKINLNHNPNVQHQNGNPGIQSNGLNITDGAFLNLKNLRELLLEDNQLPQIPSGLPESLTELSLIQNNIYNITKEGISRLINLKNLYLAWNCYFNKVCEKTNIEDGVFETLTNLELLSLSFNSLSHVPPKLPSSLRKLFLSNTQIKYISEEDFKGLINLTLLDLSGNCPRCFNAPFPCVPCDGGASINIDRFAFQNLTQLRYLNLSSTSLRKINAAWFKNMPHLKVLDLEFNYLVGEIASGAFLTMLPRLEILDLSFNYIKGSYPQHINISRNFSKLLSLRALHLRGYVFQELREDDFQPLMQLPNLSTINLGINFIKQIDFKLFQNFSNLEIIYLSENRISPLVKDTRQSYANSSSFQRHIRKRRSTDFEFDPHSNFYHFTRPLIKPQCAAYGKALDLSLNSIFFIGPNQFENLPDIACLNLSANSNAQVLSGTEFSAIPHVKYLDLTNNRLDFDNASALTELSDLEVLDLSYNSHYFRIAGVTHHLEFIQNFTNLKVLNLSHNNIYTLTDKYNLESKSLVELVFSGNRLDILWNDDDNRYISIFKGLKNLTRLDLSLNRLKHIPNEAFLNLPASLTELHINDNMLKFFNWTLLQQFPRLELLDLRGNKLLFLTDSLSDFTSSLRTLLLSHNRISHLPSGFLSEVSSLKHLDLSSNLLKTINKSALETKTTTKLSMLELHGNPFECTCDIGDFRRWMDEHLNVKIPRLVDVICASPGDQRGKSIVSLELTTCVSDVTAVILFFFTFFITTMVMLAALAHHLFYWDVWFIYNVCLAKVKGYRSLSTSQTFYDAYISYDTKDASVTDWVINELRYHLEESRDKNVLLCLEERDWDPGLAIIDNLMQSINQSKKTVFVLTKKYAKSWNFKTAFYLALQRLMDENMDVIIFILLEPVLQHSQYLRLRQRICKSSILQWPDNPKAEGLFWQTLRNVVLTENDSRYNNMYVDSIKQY
- method-description: TLR8 inhibition reporter assay (HEK-Blue SEAP);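 further: SEAP driven by IFN-β minimal promoter carrying NF-κB and AP-1 sites, compounds dosed 0.05 nM to 50 µM for 22 h, inhibition scaled between agonist-plus-DMSO and reference-inhibitor wells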
- measurement-conditions: read-out: TLR8 IC50; HEK-Blue cells overexpressing human TLR8, R848 15.9 μM stimulation, SEAP reporter
measured-metric: IC50 (nM)

In [3]: df
Out[3]:
                                   compound  measured_metric  numeric_readout
0  COCc1cc(-c2[nH]c3ccc(C4CCC(NC5COC5)CC4)nc3c2C(C)C)cn2ncnc12 (stereo not shown) [Example 214]             IC50              6.3
1  CNC1CCC(c2ccc3[nH]c(-c4cn(C)c5nccnc45)c(C(C)C)c3n2)CC1 (stereo not shown) [Example 300]             IC50              286
2  CCn1cc(-c2[nH]c3ccc(C4CCC(N5CC6(COC6)C5)CC4)nc3c2C(C)C)c2cccnc21 (stereo not shown) [Example 290]             IC50              6.3
3  CCN(C)C1CCC(c2ccc3[nH]c(-c4cn5ncnc5c(C)c4C)c(C(C)C)c3n2)CC1 (stereo not shown) [Example 390]             IC50              7.6
4  Cc1c(-c2[nH]c3ccc(N4CC5(CCN(C(C)C)CC5)C4)nc3c2C(C)C)cn2ncnc2c1C [Example 46]             IC50              4.9

A = Cc1c(-c2[nH]c3ccc(N4CCCC(NCC5(S(C)(=O)=O)CC5)C4)nc3c2C(C)C)cn2ncnc2c1C (stereo not shown) [Example 87]
B = CC(C)c1c(-c2cn(CCS(C)(=O)=O)c3ncccc23)[nH]c2ccc(C3CCC(N4CC5(COC5)C4)CC3)nc12 (stereo not shown) [Example 258]
q: Hi, I'm comparing two records. Which one has the lower IC50, A or B ? Give the chosen item's label as your response.
a: A
(A: 0.58 nM, B: 3.5 nM)
